system: Saccharomyces cerevisiae; assay: protein stability index of tFT-peptide fusion (C-terminal peptide) (PSI (0-1 scale)); higher = more stable (slower turnover); conditions: genetic background: wild type; temperature: 30 C;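 also: PSI is a weighted mean of sequencing reads over stability bins, variants kept only with over 10 reads, mCherry proximal and sfGFP distal, peptide attached via GGGS linker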
Recorded protein stability index values for a group of sequences are listed next.
Give the figure by itself; no unit, no explanation.

| residue_string | property_name | measured |
| --- | --- | --- |
| KTRTGMWDEQGV | protein stability index | 0.701 |
| EIEYVEPSIPET | protein stability index | 0.702 |

The sequence listed as `AHLPHSSFSWRP` shows protein stability index equal to 0.707

The sequence listed as `GIYLEESPMRKF` shows protein stability index equal to 0.708

The sequence listed as `RDSVLSFSALQV` shows protein stability index equal to 0.681

The sequence listed as `NSKTKNCYKTGS` shows protein stability index equal to 0.705

The sequence listed as `MKKVQENIKGKH` shows protein stability index equal to 0.717

The sequence listed as `SLFNADPYGFNL` shows protein stability index equal to 0.711

The sequence listed as `SPVGRRTLPSGF` shows protein stability index equal to 0.692

The sequence listed as `VWAGGSLLGCVG` shows protein stability index equal to 0.686

The sequence listed as `GAYSSFNGNSGD` shows protein stability index equal to 0.681

The sequence listed as `CTMEDLGNCEGI` shows protein stability index equal to 0.691
